meta.source: PubChem BioAssay

Assay: CREB reporter modulators under forskolin, primary screen, cell-based, PC12, CRE-LacZ reporter, forskolin-stimulated (AID 1146);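 also: PC12 cells with 6xCRE LacZ reporter stimulated by forskolin 10 µM; beta-galactosidase reporter signal reflecting CREB driven transcription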
Conditions: luminescence, 4.5 h, higher = more signal, called active from +8 up or from −8 down
Respond with T for z-score values of -0.3 and above, F for values below.

Some entries whose results are on file:
COCCOC(=O)N1C(=O)[C@@]2(c3cc(C#CC4(O)CCCCCC4)ccc31)[C@H](c1ccc(OCCO)cc1)N1[C@H](c3ccccc3)[C@H](c3ccccc3)OC(=O)[C@H]1[C@@H]2C(=O)N1CCCCCCC1; F
CC(C)C[C@@H]1NC(=O)C([C@@H](C)OCc2ccccc2)NC(=O)[C@@]23C(=O)N[C@@H](Cc4ccccc4)C2[C@H](C)[C@@]2(C)O[C@H]2C3/C=C/CC/C=C/CNC1=O (stereo partly specified); F
COCCOC(=O)N1C(=O)[C@@]2(c3cc(C#CC4(O)CCCCCC4)ccc31)[C@H](c1ccc(OCCO)cc1)N1[C@H](c3ccccc3)[C@H](c3ccccc3)OC(=O)[C@H]1[C@@H]2C(N)=O; T
CN1C(=O)C2C(C1=O)C1C=C(c3ccc(CO)cc3)C2C(c2cccs2)N1C (stereo unspecified); F
C=CCC(OC(C)=O)[C@@H]1[C@@H](N(Cc2ccc(-c3cccc(C(F)(F)F)c3)o2)C(=O)Cc2ccc(OC)cc2)c2cc(OCCCO)ccc2N1C(=O)c1ccc2ccccc2n1 (stereo partly specified); T

query: Identify whether the reported z-score of the following molecule is -0.3 or greater: C=CCN1C(=O)[C@]2(O[C@H](CCn3cc([C@H](O)c4ccccc4)nn3)[C@@H]([Si](C)(C)c3ccc(OC)cc3)[C@@H]2C)c2cc(N3C(=O)c4cccc5cccc3c45)ccc21
result: F
